Target: MAP kinase-activated protein kinase 2 (Homo sapiens)
Sequence (P49137 whole entry, looked up): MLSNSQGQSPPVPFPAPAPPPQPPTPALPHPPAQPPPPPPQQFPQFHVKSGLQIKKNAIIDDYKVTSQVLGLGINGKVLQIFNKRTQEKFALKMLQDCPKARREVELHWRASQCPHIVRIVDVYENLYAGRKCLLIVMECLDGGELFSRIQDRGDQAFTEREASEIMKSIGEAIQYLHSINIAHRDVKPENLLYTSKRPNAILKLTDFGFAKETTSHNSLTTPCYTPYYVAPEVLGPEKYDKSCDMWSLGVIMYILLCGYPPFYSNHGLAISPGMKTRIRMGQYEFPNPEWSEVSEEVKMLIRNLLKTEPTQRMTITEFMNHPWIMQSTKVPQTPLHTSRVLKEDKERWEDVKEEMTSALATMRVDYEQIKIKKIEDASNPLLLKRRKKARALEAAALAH
Test: Inhibition of MAPKAPK2 at 30 uM by microfluidic mobility shift assay
Collected inhibition values appear next to each entry.
# value in %; strip the unit string

given_smiles=Cc1[nH]c(=O)c2c(N)n(-c3ccccc3)nc2c1-c1ccccc1 value=9
given_smiles=Nc1n[nH]c2cc(-c3cccnc3)[nH]c(=O)c12 value=40
given_smiles=CC(C)(C)c1cc2nn(-c3ccccc3)c(N)c2c(=O)[nH]1 value=6
given_smiles=CC(=O)Nc1nn(C)c2cc(-c3ccc(N4CCN(C)CC4)cc3)[nH]c(=O)c12 value=5
given_smiles=Cc1cc2[nH]nc(N)c2cn1 value=7
given_smiles=COc1ccc(-c2cc3[nH]nc(N)c3c(=O)[nH]2)cc1 value=59
given_smiles=Cn1nc(N)c2c(=O)[nH]c(-c3ccccn3)cc21 value=36
given_smiles=Nc1c2cnc(-c3ccccc3)cc2nn1-c1ccccc1 value=1

Give inhibition only, for "Cc1cc2[nH]nc(N)c2c(N2CCOCC2)n1" , using MAP kinase-activated protein kinase 2 (Homo sapiens) data.
1

Give inhibition only, for "Cc1cc2[nH]nc(N)c2c(N2CCCCC2)n1" , using MAP kinase-activated protein kinase 2 (Homo sapiens) data.
-1

Give inhibition only, for "Cc1cc2c(c(N)nn2C)c(N2CCCCC2)n1" , using MAP kinase-activated protein kinase 2 (Homo sapiens) data.
7

Give inhibition only, for "COCCNc1nc(C)cc2nn(-c3ccccc3)c(N)c12" , using MAP kinase-activated protein kinase 2 (Homo sapiens) data.
3
